procedure.text: NCI Yeast Anticancer Drug Screen. Data for the mec2-1 strain (AID 157)
condition.set: S. cerevisiae mec2-1 strain, at 5.0 µM (retest, dose inferred, filed as 0.5)
Compounds without any hit were thinned out: in the full panel of roughly 79,000, 15% have a hit. The source made the active and inactive calls. Rule as the data show it: active = growth inhibition above about 70%; inactive = the rest.
Just give me one of these, please: T = active, F = inactive

Solved entries (count: 3):
>  <molecule>
NCCCSc1ccccc1

>  <class.label>
F

$$$$
>  <molecule>
C1=CCN([B-](c2ccccc2)[C+]2CCCCC2)C=C1

>  <class.label>
F

$$$$
>  <molecule>
CC1=CC(C)(C)SC(SSSC2=NC(C)=CC(C)(C)S2)=N1

>  <class.label>
F

$$$$

Outcome logged for Nc1cc2c(cc1N)-c1ccccc1C2=O in this assay:
F

Outcome logged for Cc1cc(Cl)ccc1NC(=O)/C(Cl)=C(/Cl)C(=O)O in this assay:
F

Outcome logged for CC(=O)Oc1ccc2c(c1)Cc1cc(N3C(=O)C=CC3=O)ccc1-2 in this assay:
F

Outcome logged for O=C1c2ccccc2N2OC3(N4CCCC4)CCCCC3C12c1ccccc1 (stereo not drawn) in this assay:
F

Outcome logged for COC(=O)c1ccccc1N=NNc1cccc(SC)c1 in this assay:
F

Outcome logged for O=[N+]([O-])c1ccc(/C=C\c2ccc3c(c2)OCO3)c([N+](=O)[O-])c1 in this assay:
F

Outcome logged for O=C1CC(C(O)(C(F)(F)F)C(F)(F)Cl)CCC1C(O)(C(F)(F)F)C(F)(F)Cl (stereo not drawn) in this assay:
F

Outcome logged for Cc1cccc(/C=N/NC(=S)NC2CCCCC2)n1 in this assay:
F

Outcome logged for CCCCN(CCCC)c1ccc(N=Nc2ccc(S(=O)(=O)O)cc2)cc1 in this assay:
F

Outcome logged for CCC(/C=C/c1ccccc1)=N\Nc1ccc(Cl)cc1 in this assay:
F

Outcome logged for CC(C)NCCCNc1c2ccccc2nc2cccc([N+](=O)[O-])c12 in this assay:
T

Outcome logged for CCOC(=O)CC1(C)/C(=N\Nc2ccc([N+](=O)[O-])cc2[N+](=O)[O-])CCC2C1CCC1(C)C(C(C)CCCC(C)C)CCC21 (stereo not drawn) in this assay:
F

Outcome logged for CC(C)N(CCCNc1c2ccccc2nc2cccc([N+](=O)[O-])c12)C(C)C in this assay:
T

Outcome logged for Nc1cc(Cl)ccc1Nc1ccccc1 in this assay:
F

Outcome logged for CCCCCCC1OCC(O)C(OCCCC)O1 (stereo not drawn) in this assay:
F

* * *

procedure.text: NCI Yeast Anticancer Drug Screen. Data for the rad52 strain (AID 147)
condition.set: S. cerevisiae rad52 mutant growth inhibition; at 3.7 µM
The panel holds about 79,000 compounds, 15% with a hit somewhere; the sample as a whole holds those more often. Active and inactive are the calls of the source. Rule as the data show it: active = growth inhibition above about 70%; inactive = the rest.
Just give me one of these, please: Yes (active), No (inactive)

Solved entries (count: 7):
>  <molecule>
Cc1cc(C)c(S(=O)(=O)c2ccc(Cl)cc2)c(C)c1

>  <class.label>
No

$$$$
>  <molecule>
Cc1ccc(S(=O)(=O)N/N=C/C(Br)=C(/Br)C(=O)O)cc1

>  <class.label>
No

$$$$
>  <molecule>
CCN1CCC(O)(c2ccc(Oc3ccc(C)cc3)cc2)C(C(=O)c2ccc(Oc3ccc(C)cc3)cc2)C1 (stereo not drawn)

>  <class.label>
No

$$$$
>  <molecule>
CCCCOc1ccc2nc(C)cc(N=[N+]=[N-])c2c1

>  <class.label>
No

$$$$
>  <molecule>
O=C1c2ccccc2-c2ccc(N=Cc3ccccc3)cc21

>  <class.label>
No

$$$$
>  <molecule>
CCCCS(=O)(=O)Nc1ccc(Nc2c3ccccc3nc3ccccc23)c(OC)c1

>  <class.label>
Yes

$$$$
>  <molecule>
O=C(O)c1ccccc1C(=O)OC1CCc2ccccc2C1 (stereo not drawn)

>  <class.label>
No

$$$$

Here's the next entry for you.
Outcome logged for O=C1NC(c2cccc(OCc3ccccc3)c2)Nc2ccccc21 (stereo not drawn) in this assay:
No
